# Study system: D(3) dopamine receptor (Homo sapiens, UniProt P35462)
# Sequence (P35462 whole entry): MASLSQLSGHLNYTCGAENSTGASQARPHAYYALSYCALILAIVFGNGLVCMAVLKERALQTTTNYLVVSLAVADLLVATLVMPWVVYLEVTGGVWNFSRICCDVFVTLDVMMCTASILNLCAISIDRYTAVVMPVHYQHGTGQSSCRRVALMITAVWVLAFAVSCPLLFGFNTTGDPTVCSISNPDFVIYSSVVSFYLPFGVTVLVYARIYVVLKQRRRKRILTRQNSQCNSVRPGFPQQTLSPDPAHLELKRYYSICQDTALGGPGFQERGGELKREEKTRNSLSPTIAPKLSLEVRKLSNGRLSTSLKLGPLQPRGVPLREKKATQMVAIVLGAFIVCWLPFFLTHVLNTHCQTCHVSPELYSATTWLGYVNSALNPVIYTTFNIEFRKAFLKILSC
# Assay remarks: DRUGMATRIX: Dopamine D3 radioligand binding (ligand: [3H] Spiperone)
# Type: cell membranes, CHO, Membrane
# Measurement conditions: read-out: IC50

# Compound, Study system, IC50 / µM
records = [
    ("CC(C)N1CCN(c2ccc(OCC3COC(Cn4cncn4)(c4ccc(Cl)cc4Cl)O3)cc2)CC1 (configuration not stated)", "D(3) dopamine receptor (Homo sapiens, UniProt P35462)", 4.71),
    ("CC[C@@H](CO)NC(=O)[C@@H]1C=C2c3cccc4[nH]cc(c34)C[C@H]2N(C)C1", "D(3) dopamine receptor (Homo sapiens, UniProt P35462)", 0.167),
    ("CN(C)CCCN1c2ccccc2Sc2ccccc21", "D(3) dopamine receptor (Homo sapiens, UniProt P35462)", 0.205),
    ("CC/C(=C(\\c1ccccc1)c1ccc(OCCN(C)C)cc1)c1ccccc1", "D(3) dopamine receptor (Homo sapiens, UniProt P35462)", 1.07),
    ("CC(C)[C@@]1(NC(=O)[C@@H]2C[C@@H]3c4cccc5[nH]cc(c45)C[C@H]3N(C)C2)O[C@@]2(O)[C@@H]3CCCN3C(=O)[C@H](Cc3ccccc3)N2C1=O.CS(=O)(=O)O [DIHYDROERGOCRISTINE MESYLATE]", "D(3) dopamine receptor (Homo sapiens, UniProt P35462)", 0.00229),
    ("CC(C)[C@H]1C(=O)N2CCC[C@H]2[C@]2(O)O[C@](NC(=O)[C@@H]3C=C4c5cccc6[nH]cc(c56)C[C@H]4N(C)C3)(C(C)C)C(=O)N12", "D(3) dopamine receptor (Homo sapiens, UniProt P35462)", 0.00286),
    ("O=C(CCCN1CC=C(n2c(=O)[nH]c3ccccc32)CC1)c1ccc(F)cc1", "D(3) dopamine receptor (Homo sapiens, UniProt P35462)", 0.00277),
]

====

# Study system: Voltage-gated inwardly rectifying potassium channel KCNH2 (Homo sapiens, UniProt Q12809); note: in other assays of this panel Not Active means under 50% inhibition at 10 µM
# Sequence (Q12809 whole entry): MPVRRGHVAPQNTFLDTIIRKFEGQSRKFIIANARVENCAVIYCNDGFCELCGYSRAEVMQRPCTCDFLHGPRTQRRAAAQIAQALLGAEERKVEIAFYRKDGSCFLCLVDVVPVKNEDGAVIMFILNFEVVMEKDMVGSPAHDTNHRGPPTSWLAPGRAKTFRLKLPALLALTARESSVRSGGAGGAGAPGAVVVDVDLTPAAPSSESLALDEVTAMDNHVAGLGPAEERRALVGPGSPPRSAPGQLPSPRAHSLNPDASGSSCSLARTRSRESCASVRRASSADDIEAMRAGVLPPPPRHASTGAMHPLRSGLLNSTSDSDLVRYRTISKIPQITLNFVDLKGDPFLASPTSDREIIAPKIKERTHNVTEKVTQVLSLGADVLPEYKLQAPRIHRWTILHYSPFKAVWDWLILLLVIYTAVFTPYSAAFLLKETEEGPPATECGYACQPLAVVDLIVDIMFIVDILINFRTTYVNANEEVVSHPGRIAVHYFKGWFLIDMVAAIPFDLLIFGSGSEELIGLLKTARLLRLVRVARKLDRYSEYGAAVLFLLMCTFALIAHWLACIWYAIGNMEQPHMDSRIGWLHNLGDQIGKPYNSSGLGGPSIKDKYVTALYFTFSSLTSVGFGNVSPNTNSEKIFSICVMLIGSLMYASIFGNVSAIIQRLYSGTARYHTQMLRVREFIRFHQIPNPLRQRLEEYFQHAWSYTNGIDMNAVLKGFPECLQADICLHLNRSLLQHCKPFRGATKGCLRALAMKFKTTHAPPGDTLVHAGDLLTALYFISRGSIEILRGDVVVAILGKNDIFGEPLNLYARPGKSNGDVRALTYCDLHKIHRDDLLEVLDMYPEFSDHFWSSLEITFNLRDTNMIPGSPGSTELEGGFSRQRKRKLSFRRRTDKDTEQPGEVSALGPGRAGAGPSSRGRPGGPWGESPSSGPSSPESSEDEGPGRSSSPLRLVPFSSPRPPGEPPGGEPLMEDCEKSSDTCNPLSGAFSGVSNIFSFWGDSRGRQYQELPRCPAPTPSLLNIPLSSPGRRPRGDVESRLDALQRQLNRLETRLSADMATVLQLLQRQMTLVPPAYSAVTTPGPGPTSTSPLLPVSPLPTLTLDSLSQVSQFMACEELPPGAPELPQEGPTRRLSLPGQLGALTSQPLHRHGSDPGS
# Measurement conditions: hek293
*1 amine or outer side, *2 acyl side, *3 side chain or, on linkers, in order; H or OH if unused. Where a SMILES comes first, the peptide text is derived from it. Bridges are numbered along the chain shown (N, C = ends). Roman numbers before positions name the chains, in order. [ ]: non-standard residue; d: D form. Actinocin(1to9) = Cc1c2oc3c(C)ccc(C(=O)[*:2])c3nc-2c(C(=O)[*:1])c(N)c1=O; NMeV = CN[C@H](C(=O)O)C(C)C; Sar = CNCC(=O)O

# Compound, IC50
records = [
    ("NS(=O)(=O)c1cc2c(cc1Cl)NC(C(Cl)Cl)NS2(=O)=O (centres undefined) [TRICHLORMETHIAZIDE]", "Not Active"),
    ("C[C@](N)(Cc1ccc(O)c(O)c1)C(=O)O [METHYLDOPA]", "Not Active"),
    ("CC1=C2C(=CO[C@H](C)[C@H]2C)C(O)=C(C(=O)O)C1=O [CITRININ]", "Not Active"),
    ("CC(C)N1CCN(c2ccc(OCC3COC(Cn4cncn4)(c4ccc(Cl)cc4Cl)O3)cc2)CC1 (centres undefined) [TERCONAZOLE]", "Not Active"),
    ("CCC(C)n1ncn(-c2ccc(N3CCN(c4ccc(OCC5COC(Cn6cncn6)(c6ccc(Cl)cc6Cl)O5)cc4)CC3)cc2)c1=O (centres undefined) [ITRACONAZOLE]", "Not Active"),
    ("C[C@H]1c2cccc(O)c2C(=O)C2=C(O)[C@]3(O)C(=O)C(C(N)=O)=C(O)[C@@H](N(C)C)[C@@H]3[C@@H](O)[C@@H]21.O [DOXYCYCLINE]", "Not Active"),
    ("OCCN(CCO)c1nc(N2CCCCC2)c2nc(N(CCO)CCO)nc(N3CCCCC3)c2n1 [DIPYRIDAMOLE]", "Not Active"),
    ("Cc1c2oc3c(C)ccc(C(=O)N[C@@H]4C(=O)N[C@H](C(C)C)C(=O)N5CCC[C@H]5C(=O)N(C)CC(=O)N(C)[C@@H](C(C)C)C(=O)O[C@@H]4C)c3nc-2c(C(=O)N[C@@H]2C(=O)N[C@H](C(C)C)C(=O)N3CCC[C@H]3C(=O)N(C)CC(=O)N(C)[C@@H](C(C)C)C(=O)O[C@@H]2C)c(N)c1=O [DACTINOMYCIN] (I: T[dV]P[Sar][NMeV] / II: T[dV]P[Sar][NMeV]; ester I:1-I:C, II:1-II:C; linker I:N-II:N via Actinocin(1to9))", "Not Active"),
    ("Cc1ccc(/N=C/N(C)/C=N/c2ccc(C)cc2C)c(C)c1 [AMITRAZ]", "Not Active"),
    ("Nc1nc2c(ncn2CCC(CO)CO)c(=O)[nH]1 [PENCICLOVIR]", "Not Active"),
    ("CC1(C)O[C@@H]2C[C@H]3[C@@H]4CCC5=CC(=O)C=C[C@]5(C)[C@@]4(F)[C@@H](O)C[C@]3(C)[C@]2(C(=O)CO)O1 [TRIAMCINOLONE ACETONIDE]", "Not Active"),
    ("O=c1[nH]c(=O)n([C@H]2C[C@H](O)[C@@H](CO)O2)cc1I [IDOXURIDINE]", "Not Active"),
    ("C[C@]12CC[C@@H]3c4ccc(O)cc4CC[C@H]3[C@@H]1CCC2=O [ESTRONE]", "Not Active"),
    ("Cc1c(O)c(=O)ccn1C [DEFERIPRONE]", "Not Active"),
    ("Cc1oncc1C(=O)Nc1ccc(C(F)(F)F)cc1 [LEFLUNOMIDE]", "Not Active"),
    ("COc1cc2c3cc1Oc1cc(ccc1O)C[C@@H]1c4c(cc(OC)c(O)c4Oc4ccc(cc4)C[C@@H]3N(C)CC2)CC[N+]1(C)C.[Cl-]", "Not Active"),
    ("c1ccc(Nc2ccc(Nc3ccccc3)cc2)cc1", "Not Active"),
    ("CC[C@@H](CO)NC(=O)[C@@H]1C=C2c3cccc4[nH]cc(c34)C[C@H]2N(C)C1 [METHYLERGONOVINE]", "Not Active"),
    ("O=c1oc2ccccc2c(O)c1Cc1c(O)c2ccccc2oc1=O [DICUMAROL]", "Not Active"),
    ("CN(C)c1nc(N(C)C)nc(N(C)C)n1 [ALTRETAMINE]", "Not Active"),
    ("Nc1ncn([C@@H]2O[C@H](CO)[C@@H](O)[C@H]2O)c(=O)n1 [AZACITIDINE]", "Not Active"),
    ("C=CCC1(C(C)CCC)C(=O)NC(=O)NC1=O (centres undefined) [SECOBARBITAL]", "Not Active"),
    ("O=C1CC[C@@H](N2C(=O)c3ccccc3C2=O)C(=O)N1", "Not Active"),
    ("CNNCc1ccc(C(=O)NC(C)C)cc1 [PROCARBAZINE]", "Not Active"),
    ("CC(C)C(Br)C(=O)NC(N)=O (centres undefined) [BROMISOVALUM]", "Not Active"),
    ("CN(C)CCCN1c2ccccc2Sc2ccccc21 [PROMAZINE]", "Not Active"),
    ("C=C(C)C1(O)OC(=O)C=C1OC (centres undefined) [PENICILLIC ACID]", "Not Active"),
    ("CNCCc1ccccn1 [BETAHISTINE]", "Not Active"),
    ("COc1ccc(C[C@H]2NC[C@H](O)[C@H]2OC(C)=O)cc1 [ANISOMYCIN]", "Not Active"),
    ("N[C@@H](Cc1cc(I)c(Oc2ccc(O)c(I)c2)c(I)c1)C(=O)O [LIOTHYRONINE]", "Not Active"),
    ("CCC1(c2ccc(N)cc2)CCC(=O)NC1=O (centres undefined) [AMINOGLUTETHIMIDE]", "Not Active"),
    ("Nc1nc(N)nc(-c2cc(Cl)ccc2Cl)n1.O=C(O)/C=C\\C(=O)O [IRSOGLADINE MALEATE]", "Not Active"),
    ("CC(C)C(=O)Nc1ccc([N+](=O)[O-])c(C(F)(F)F)c1 [FLUTAMIDE]", "Not Active"),
    ("CC1CC(OC(=O)C(O)c2ccccc2)CC(C)(C)C1 (centres undefined) [CYCLANDELATE]", "Not Active"),
]

====

# Study system: UniProtKB P41597
# Sequence (P41597 whole entry): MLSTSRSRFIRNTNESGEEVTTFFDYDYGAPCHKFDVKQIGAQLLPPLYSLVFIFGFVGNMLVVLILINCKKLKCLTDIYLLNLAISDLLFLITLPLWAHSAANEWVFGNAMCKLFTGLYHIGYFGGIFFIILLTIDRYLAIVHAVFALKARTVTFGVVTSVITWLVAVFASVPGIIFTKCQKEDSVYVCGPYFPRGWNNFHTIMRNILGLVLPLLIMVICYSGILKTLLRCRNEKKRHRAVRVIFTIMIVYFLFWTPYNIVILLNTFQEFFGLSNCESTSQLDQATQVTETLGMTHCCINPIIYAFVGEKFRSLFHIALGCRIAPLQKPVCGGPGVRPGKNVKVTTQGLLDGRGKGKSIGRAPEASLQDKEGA
# Format: cell membranes, CHO-K1, Membrane
# Measurement conditions: cho-k1
Reported endpoint: IC50

# Compound, Endpoint result
records = [
    ("Clc1cccc(Cl)c1NC1=NCCN1", "Not Active"),
    ("COc1ccc(C[C@H]2NC[C@H](O)[C@H]2OC(C)=O)cc1", "Not Active"),
    ("CC(C)[C@@]1(NC(=O)[C@@H]2C[C@@H]3c4cccc5[nH]cc(c45)C[C@H]3N(C)C2)O[C@@]2(O)[C@@H]3CCCN3C(=O)[C@H](Cc3ccccc3)N2C1=O.CS(=O)(=O)O [DIHYDROERGOCRISTINE MESYLATE]", "Not Active"),
    ("CC(C)[C@H]1C(=O)N2CCC[C@H]2[C@]2(O)O[C@](NC(=O)[C@@H]3C=C4c5cccc6[nH]cc(c56)C[C@H]4N(C)C3)(C(C)C)C(=O)N12", "Not Active"),
    ("C[C@](N)(Cc1ccc(O)c(O)c1)C(=O)O", "Not Active"),
    ("NS(=O)(=O)c1cc2c(cc1Cl)NC(C(Cl)Cl)NS2(=O)=O (centres undefined) [TRICHLORMETHIAZIDE]", "Not Active"),
    ("Cc1ccc2cc3c(ccc4ccccc43)c3c2c1CC3", "Not Active"),
    ("CN(C)c1nc(N(C)C)nc(N(C)C)n1", "Not Active"),
    ("CC(C)C(Br)C(=O)NC(N)=O (centres undefined)", "Not Active"),
    ("COCCc1ccc(OCC(O)CNC(C)C)cc1 (centres undefined)", "Not Active"),
    ("Cc1noc(NS(=O)(=O)c2ccc(N)cc2)c1C", "Not Active"),
    ("C[C@H]1O[C@@H](O[C@H]2[C@@H](O)C[C@H](O[C@H]3[C@@H](O)C[C@H](O[C@H]4CC[C@@]5(C)[C@H](CC[C@@H]6[C@@H]5C[C@@H](O)[C@]5(C)[C@@H](C7=CC(=O)OC7)CC[C@]65O)C4)O[C@@H]3C)O[C@@H]2C)C[C@H](O)[C@@H]1O", "Not Active"),
    ("Nc1ncn([C@@H]2O[C@H](CO)[C@@H](O)[C@H]2O)c(=O)n1", "Not Active"),
    ("CC1(C)O[C@@H]2C[C@H]3[C@@H]4CCC5=CC(=O)C=C[C@]5(C)[C@@]4(F)[C@@H](O)C[C@]3(C)[C@]2(C(=O)CO)O1 [TRIAMCINOLONE ACETONIDE]", "Not Active"),
    ("CC1CC(OC(=O)C(O)c2ccccc2)CC(C)(C)C1 (centres undefined) [CYCLANDELATE]", "Not Active"),
    ("CC(C)C(=O)Nc1ccc([N+](=O)[O-])c(C(F)(F)F)c1 [FLUTAMIDE]", "Not Active"),
    ("Nc1c2c(nc3ccccc13)CCCC2", "Not Active"),
    ("CCCCN1CCCC[C@H]1C(=O)Nc1c(C)cccc1C", "Not Active"),
    ("CNCCCN1c2ccccc2CCc2ccccc21", "Not Active"),
    ("CC[C@@H](CO)NC(=O)[C@@H]1C=C2c3cccc4[nH]cc(c34)C[C@H]2N(C)C1", "Not Active"),
    ("Cc1cc(C2CCCCC2)n(O)c(=O)c1", "Not Active"),
    ("Cc1nc2n(c(=O)c1CCN1CCC(c3noc4cc(F)ccc34)CC1)CCCC2", "Not Active"),
    ("Nc1nc2nc[nH]c2c(=S)[nH]1", "Not Active"),
    ("Cc1ccccc1N1C(=O)c2cc(S(N)(=O)=O)c(Cl)cc2NC1C (centres undefined)", "Not Active"),
    ("CNNCc1ccc(C(=O)NC(C)C)cc1", "Not Active"),
    ("c1ccc(Nc2ccc(Nc3ccccc3)cc2)cc1", "Not Active"),
    ("N#CC(C#N)=Cc1ccc(O)c(O)c1", "Not Active"),
    ("Cc1c(C)c2c(c(C)c1O)CCC(C)(COc1ccc(CC3SC(=O)NC3=O)cc1)O2 (centres undefined)", "Not Active"),
    ("NCCCCCC(=O)O", "Not Active"),
    ("Cc1onc(-c2ccccc2Cl)c1C(=O)N[C@@H]1C(=O)N2[C@@H]1SC(C)(C)[C@@H]2C(=O)O", "Not Active"),
    ("Cc1c(C)c2c(c(C)c1O)CC[C@@](C)(CCC[C@H](C)CCC[C@H](C)CCCC(C)C)O2", "Not Active"),
    ("Cc1ccc(-c2cc(C(F)(F)F)nn2-c2ccc(S(N)(=O)=O)cc2)cc1", "Not Active"),
    ("O=C1CC[C@@H](N2C(=O)c3ccccc3C2=O)C(=O)N1", "Not Active"),
    ("C[C@H](CS)C(=O)N1CCC[C@H]1C(=O)O", "Not Active"),
]
